Source listed as patent US20210161994A1.

Experiment: Log P (partition coefficient)
Type: physicochemical
Experimental endpoint: logP
The answer should be a number; do not append a unit.

Please look up its logP: C[C@@H](O)[C@@H]1NC(=O)[C@H](CCCCN)NC(=O)[C@@H](Cc2c[nH]c3ccccc23)NC(=O)[C@H](Cc2ccccc2)NC(=O)[C@@H](NC(=O)[C@H](N)Cc2ccccc2)CSSC[C@@H](C(=O)N[C@H](CO)[C@@H](C)O)NC1=O [Octreotide Acetate]
0.43
